Where do these numbers come from? They come from patent US20260008815A1.

target_entity: Recombinant Human FGFR2 alpha (IIIc) Fc Chimera Protein (Homo sapiens, UniProt P21802)
Construct: Fc (chimera); purchased R&D systems 712-FR-050
Sequence (P21802 with tags, fused parts or gaps limits assumed): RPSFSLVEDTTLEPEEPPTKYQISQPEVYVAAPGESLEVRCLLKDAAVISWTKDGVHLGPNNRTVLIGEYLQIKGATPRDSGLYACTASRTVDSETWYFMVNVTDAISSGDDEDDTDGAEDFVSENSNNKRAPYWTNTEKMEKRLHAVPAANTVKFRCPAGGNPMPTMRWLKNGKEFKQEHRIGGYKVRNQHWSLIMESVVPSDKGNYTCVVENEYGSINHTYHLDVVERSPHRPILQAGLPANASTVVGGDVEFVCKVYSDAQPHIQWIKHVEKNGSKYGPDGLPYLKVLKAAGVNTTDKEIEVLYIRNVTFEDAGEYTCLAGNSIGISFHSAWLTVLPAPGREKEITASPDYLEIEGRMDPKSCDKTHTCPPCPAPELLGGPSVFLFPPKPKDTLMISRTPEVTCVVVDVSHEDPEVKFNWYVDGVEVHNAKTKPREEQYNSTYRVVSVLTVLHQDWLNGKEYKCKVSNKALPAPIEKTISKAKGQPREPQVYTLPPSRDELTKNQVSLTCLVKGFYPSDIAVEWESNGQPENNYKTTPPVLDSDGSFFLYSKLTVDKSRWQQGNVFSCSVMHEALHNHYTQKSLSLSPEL
assay_name: ELISA binding affinity of enzymatically synthesized peptide to FGFR
condition_description: ELISA luminescence signal at 10 nmol/L peptide, SEQ ID NO: 47 at 10 nmol/L standardized to 1; enzyme synthesis product
Bridge positions count the residues as written; N and C are the ends. Ends that are not written are not given here. COCH2 = acetyl group that carries the bridge
result_type: Evaluation result of binding affinity to FGFR

substance | obs_value
295 (YCEENYLDPEQYQYFIVFK(COCH2)Y; thioether 2-19) [compound 295] | A (0.7 or more)
248 (YCEENYLDPDQYQYFIYFK(COCH2)Y; thioether 2-19 (inferred)) [compound 248] | A (0.7 or more)
249 (YCEENYLDPRQYQYFIYFK(COCH2)Y; thioether 2-19 (inferred)) [compound 249] | A (0.7 or more)
